experiment: Half life in mouse at 5 mg/kg, iv after 30 mins; format: ADME, organism-based; parameters: dose 5 mg/kg, route intravenous; conditions: in vivo
*1 amine or outer side, *2 acyl side, *3 side chain or, on linkers, in order; H or OH if unused. Where a SMILES comes first, the peptide text is derived from it. Bridges are numbered along the chain shown (N, C = ends). [ ]: non-standard residue; d: D form. The star is where a group is joined. hTyr(3S-OH,4S-OH,3'-OSO3H) = N[C@H](C(=O)O)[C@H](O)[C@@H](O)c1ccc(O)c(OS(=O)(=O)O)c1; Orn(4R-OH,5S-OH) = O=C([C@H](C[C@@H](O)[C@H](O)N[*:3])N[*:1])[*:2]; Pro(3S-OH,4S-Me) = C[C@H]1CN[C@H](C(=O)O)[C@H]1O; Benzoyl(4-octyloxy) = CCCCCCCCOc1ccc(C(=O)*)cc1; Gln(3R-OH) = NC(=O)C[C@@H](O)[C@H](N)C(=O)O; Hyp = O=C(O)[C@@H]1C[C@@H](O)CN1
Test Readout: half-life (h)
Give a bare numeral; the unit h is implied.

# query: half-life of entry CCCCCCCCOc1ccc(C(=O)N[C@H]2C[C@@H](O)[C@H](O)NC(=O)[C@@H]3[C@@H](O)[C@@H](C)CN3C(=O)[C@H]([C@H](O)CC(N)=O)NC(=O)[C@H]([C@H](O)[C@@H](O)c3ccc(O)c(OS(=O)(=O)[O-])c3)NC(=O)[C@@H]3C[C@@H](O)CN3C(=O)[C@H]([C@@H](C)O)NC2=O)cc1.[Na+] [FR-131535] ({Benzoyl(4-octyloxy)}-[Orn(4R-OH,5S-OH)]T[Hyp][hTyr(3S-OH,4S-OH,3'-OSO3H)][Gln(3R-OH)][Pro(3S-OH,4S-Me)]; lactam 1-C) 2
